Read-out: matrix metalloproteinase-10 (MMP10), MMP10 (gene 4319)
Experiment: LTEA_HepaRG_MMP10: Life Technologies and Expression Analysis (LTEA) Assay for matrix metalloproteinase-10 (MMP10) using HepaRG (AID 2283517)
Conditions: mRNA level, 48 h; actives raise or lower the signal
Active and inactive are the calls of the source. The calls were made as follows: active = hit-call score of the fitted dose curve at least 0.9, where 1 is the maximum; inactive = score below 0.9.
Give your call using only these classes: active, inactive

Previously resolved entries follow.
{"compound": "C=CC(=O)NCNC(=O)C=C", "discrete_label": "inactive"}
{"compound": "CCNc1nc(NC(C)C)nc(SC)n1", "discrete_label": "inactive"}
{"compound": "CCCN(CCC)N=O", "discrete_label": "inactive"}
{"compound": "CCC(C)(CC)c1cc(NC(=O)c2c(OC)cccc2OC)on1", "discrete_label": "inactive"}
{"compound": "COc1ccc(O)c(C(C)(C)C)c1", "discrete_label": "inactive"}

Alright, here's another compound for you.
Enquiry: Dear colleague, could you share the recorded outcome for `CCCCCCOC(=O)c1ccccc1C(=O)OCCCCCC` when you have a moment?
Return: inactive
